Below, each entry is listed alongside its reported fB Cleavage, 64% plasma EC50.
molecular target: Human Factor B (human) (UniProt P00751); assay: cell-based or functional assay
Sequence (P00751 26-764 limits assumed): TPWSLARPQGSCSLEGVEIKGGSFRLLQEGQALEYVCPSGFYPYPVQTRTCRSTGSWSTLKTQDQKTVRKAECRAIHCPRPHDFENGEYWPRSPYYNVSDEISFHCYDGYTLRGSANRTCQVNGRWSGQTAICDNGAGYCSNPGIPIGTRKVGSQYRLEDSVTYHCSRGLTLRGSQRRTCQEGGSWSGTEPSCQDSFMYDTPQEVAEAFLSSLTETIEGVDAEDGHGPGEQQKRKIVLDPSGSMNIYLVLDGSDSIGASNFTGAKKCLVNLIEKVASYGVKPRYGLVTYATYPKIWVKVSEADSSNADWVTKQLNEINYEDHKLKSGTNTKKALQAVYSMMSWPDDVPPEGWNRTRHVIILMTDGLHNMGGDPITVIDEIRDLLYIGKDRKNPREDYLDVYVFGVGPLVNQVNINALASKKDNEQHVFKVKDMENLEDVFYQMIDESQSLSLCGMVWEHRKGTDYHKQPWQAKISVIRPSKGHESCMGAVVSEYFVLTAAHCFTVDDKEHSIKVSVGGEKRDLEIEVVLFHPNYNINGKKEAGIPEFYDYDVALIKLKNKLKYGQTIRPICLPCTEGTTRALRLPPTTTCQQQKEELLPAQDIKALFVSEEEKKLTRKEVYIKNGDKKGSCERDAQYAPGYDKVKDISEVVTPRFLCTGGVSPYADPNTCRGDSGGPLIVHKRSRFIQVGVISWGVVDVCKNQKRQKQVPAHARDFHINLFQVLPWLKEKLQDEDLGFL

binder	value
chymase C22S/F41R/L99H/G151A/F173S/Y215K/R217T/A226R (enzyme) IIGGTESKPHSRPYMAYLEIVTSNGPSKRCGGFLIRRNFVLTAAHCAGRSITVTLGAHNITEEEDTWQKLEVIKQFRHPKYNTSTHHHDIMLLKLKEKASLTLAVGTLPFPSQFNFVPPGRMCRVAGWGRTGVLKPASDTLQEVKLRLMDPQACSHSRDFDHNLQLCVGNPRKTKSAFKGDSGGPLLCAGVAQGIVSKGTSDAKPPRVFTRISHYRPWINQILQAN	3.4 µM

Enquiry: Reported fB Cleavage, 64% plasma EC50, binder chymase C22S/L99Y/F173L/K192R/Y215H/R217T/S218V/A226R (enzyme) IIGGTESKPHSRPYMAYLEIVTSNGPSKFCGGFLIRRNFVLTAAHCAGRSITVTLGAHNITEEEDTWQKLEVIKQFRHPKYNTSTYHHDIMLLKLKEKASLTLAVGTLPFPSQFNFVPPGRMCRVAGWGRTGVLKPGSDTLQEVKLRLMDPQACSHLRDFDHNLQLCVGNPRKTKSAFRGDSGGPLLCAGVAQGIVSHGTVDAKPPRVFTRISHYRPWINQILQAN : ____
Return: 12.4 µM

Enquiry: Reported fB Cleavage, 64% plasma EC50, binder chymase C22S/L99R/F173L/K192R/Y215H/R217T/S218V/A226R (enzyme) IIGGTESKPHSRPYMAYLEIVTSNGPSKFCGGFLIRRNFVLTAAHCAGRSITVTLGAHNITEEEDTWQKLEVIKQFRHPKYNTSTRHHDIMLLKLKEKASLTLAVGTLPFPSQFNFVPPGRMCRVAGWGRTGVLKPGSDTLQEVKLRLMDPQACSHLRDFDHNLQLCVGNPRKTKSAFRGDSGGPLLCAGVAQGIVSHGTVDAKPPRVFTRISHYRPWINQILQAN : ____
Return: 4.38 µM

Enquiry: Reported fB Cleavage, 64% plasma EC50, binder chymase C22S/F41K/L99H/G151A/F173Y/Y215K/R217S/A226R (enzyme) IIGGTESKPHSRPYMAYLEIVTSNGPSKKCGGFLIRRNFVLTAAHCAGRSITVTLGAHNITEEEDTWQKLEVIKQFRHPKYNTSTHHHDIMLLKLKEKASLTLAVGTLPFPSQFNFVPPGRMCRVAGWGRTGVLKPASDTLQEVKLRLMDPQACSHYRDFDHNLQLCVGNPRKTKSAFKGDSGGPLLCAGVAQGIVSKGSSDAKPPRVFTRISHYRPWINQILQAN : ____
Return: 5.69 µM
